system: Mycolicibacterium smegmatis; assay: Antibacterial activity against Mycobacterium smegmatis ATCC 607 after 18 hrs by agar-well diffusion method; type: functional; note: test concentration or dose not given here
experimental endpoint: inhibition zone (IZ) (mm)
State just the number; it will be interpreted in mm.

What value of inhibition zone (IZ) has been recorded for this entry: `Cc1c(-n2c(Cc3ccc(Cl)cc3)nn(CC(=O)N/N=c3/scc(-c4ccc([N+](=O)[O-])cc4)n3-c3ccccc3)c2=O)c(=O)n(-c2ccccc2)n1C`
25

Now try `Cc1c(-n2c(Cc3ccc(Cl)cc3)nn(Cc3nnc(Nc4ccccc4)s3)c2=O)c(=O)n(-c2ccccc2)n1C` .
25

What do you get for `CN[C@@H]1[C@H](O[C@H]2[C@H](O[C@H]3[C@H](O)[C@@H](O)[C@H](N=C(N)N)[C@@H](O)[C@@H]3N=C(N)N)O[C@@H](C)[C@]2(O)C=O)O[C@@H](CO)[C@H](O)[C@H]1O` ?
35

Same lookup for `Cc1c(-n2c(Cc3ccc(Cl)cc3)nn(Cc3nnc(S)n3Cc3ccccc3)c2=O)c(=O)n(-c2ccccc2)n1C` , please.
33

Repeat with `Cc1c(-n2c(Cc3ccc(Cl)cc3)nn(CC(=O)NNC(=S)NCc3ccccc3)c2=O)c(=O)n(-c2ccccc2)n1C`
15

Please do the same for `Cc1c(-n2c(Cc3ccc(Cl)cc3)nn(Cc3nnc(S)n3-c3ccc(F)cc3)c2=O)c(=O)n(-c2ccccc2)n1C` as well.
30

---

tested on: Mycolicibacterium smegmatis; test: Antibacterial activity against Mycobacterium smegmatis ATCC 607 after 18 hrs by agar-well diffusion method; assay type: functional; note: test concentration or dose not given here
Measured inhibition zone (IZ) accompanies every entry in the list below.
Give me the value, and tack the unit on after it.

Solved entries:
smiles_structure=Cc1c(-n2c(Cc3ccc(Cl)cc3)nn(CC(=O)N/N=c3/scc(-c4ccc(Cl)cc4)n3-c3ccccc3)c2=O)c(=O)n(-c2ccccc2)n1C experimental_endpoint="inhibition zone (IZ)" result="10 mm"
smiles_structure=Cc1c(-n2c(Cc3ccc(Cl)cc3)nn(CC(=O)NNC(=S)Nc3ccc(F)cc3)c2=O)c(=O)n(-c2ccccc2)n1C experimental_endpoint="inhibition zone (IZ)" result="15 mm"
smiles_structure=Cc1c(-n2c(Cc3ccc(Cl)cc3)nn(Cc3nnc(Nc4ccc(F)cc4)s3)c2=O)c(=O)n(-c2ccccc2)n1C experimental_endpoint="inhibition zone (IZ)" result="25 mm"

We next turn to a different compound, shown below.
inhibition zone (IZ) lookup needed for `Cc1c(-n2c(Cc3ccc(Cl)cc3)nn(Cc3nnc(S)o3)c2=O)c(=O)n(-c2ccccc2)n1C` , thanks.
38 mm

---

system: Mycolicibacterium smegmatis; experiment: Antibacterial activity against Mycobacterium smegmatis ATCC 607 after 18 hrs by agar-well diffusion method; type: functional; note: test concentration or dose not given here
experimental endpoint: inhibition zone (IZ) (mm)
Write the number in mm without appending the unit.

Completed entries (count: 2):
smiles_structure=Cc1c(-n2c(Cc3ccc(Cl)cc3)nn(Cc3nnc(NCc4ccccc4)s3)c2=O)c(=O)n(-c2ccccc2)n1C quantitative_result=25
smiles_structure=Cc1c(-n2c(Cc3ccc(Cl)cc3)nn(CC(=O)NNC(=S)Nc3ccccc3)c2=O)c(=O)n(-c2ccccc2)n1C quantitative_result=10

Now turn to the next compound.
I am curious: what inhibition zone (IZ) value has been reported for `Cc1c(-n2c(Cc3ccc(Cl)cc3)nn(Cc3nnc(S)n3-c3ccccc3)c2=O)c(=O)n(-c2ccccc2)n1C` ?
34

Source: ChEMBL document CHEMBL1275269
